Test system: HL-60(TB) leukemia
Experiment: NCI-60 one-dose screen, 48 h
Conditions: 10 µM unless noted
The panel holds about 83,000 compounds, 20% with a hit somewhere; the sample as a whole holds those more often. Calls of active or inactive are those of the source. How the source made its calls: active means growth percent below 10; inactive means the rest.
// classify into active, inactive

See these solved cases before continuing.
COP(=O)(OC)C(c1ccccc1)(c1ccccc1)c1ccccc1	inactive
COc1ccc(-c2nn(C(=O)c3cc(OC)c(OC)c(OC)c3)c3cc(N)ccc23)cc1	active
COc1c(Cl)cc(Cl)cc1Cl	inactive

query: Lab log entry: [2H]C1([2H])CCN(C(=O)C2CC2)c2cc(NS(=O)(=O)c3ccc(-c4cccc(C(N)=O)c4)cc3)ccc21 — outcome as called in the assay?
result: active
